molecular target: Histone deacetylase 1 (Homo sapiens, UniProt Q13547); assay: Inhibition of recombinant human full length C-terminal FLAG/His-tagged HDAC1 expressed in Sf9 insect cells using ZMAL (Z-(Ac)Lys-AMC as substrate at 1 uM measured after 90 mins by fluorescence plate reader analysis relative to control
Sequence (Q13547 whole entry): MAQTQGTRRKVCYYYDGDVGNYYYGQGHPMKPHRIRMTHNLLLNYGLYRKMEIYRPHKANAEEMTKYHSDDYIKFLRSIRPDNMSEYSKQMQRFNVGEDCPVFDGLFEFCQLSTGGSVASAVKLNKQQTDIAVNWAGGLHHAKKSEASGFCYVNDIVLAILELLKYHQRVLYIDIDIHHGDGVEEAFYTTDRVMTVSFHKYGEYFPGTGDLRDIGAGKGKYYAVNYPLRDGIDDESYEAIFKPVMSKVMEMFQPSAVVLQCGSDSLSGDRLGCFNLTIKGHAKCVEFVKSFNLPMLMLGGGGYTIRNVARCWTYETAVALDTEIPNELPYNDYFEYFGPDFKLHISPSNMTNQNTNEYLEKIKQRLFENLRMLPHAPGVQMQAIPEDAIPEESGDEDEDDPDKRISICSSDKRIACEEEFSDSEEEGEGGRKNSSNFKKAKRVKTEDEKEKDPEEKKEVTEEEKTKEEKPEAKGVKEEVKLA
Entry flag: Condition met if inhibition reaches 20%; Condition not met if it does not.

Challenge: Confirm if inhibition reported for the compound O=C(Cc1ccc(NC(=O)N2CCC(N3C(=O)[C@H](c4ccccc4)[C@H]3c3ccccc3)CC2)cc1)NO (racemic) is 20% or above.
Response given: Condition met

---

test: Metabolic stability in mouse liver microsome assessed as half life at 5 uM in presence of NADPH incubated up to 60 mins by HPLC analysis; type: ADME; conditions: liver microsomes
EXPERIMENTAL_READOUT: half-life at 5 µM (min)
// note: answer is a bare numeric in min

molecule="O=C(NO)c1ccc(CNC(=O)N2CCC(N3C(=O)[C@H](c4ccccc4)[C@H]3c3ccccc3)CC2)cc1 (racemic)" experimental_readout="half-life at 5 µM" measured_number=64

Challenge: What half-life at 5 µM value was documented for this molecule, O=C(NO)c1ccc(CNC(=O)N2CCC(N3CC(c4ccccc4)(c4ccccc4)C3=O)CC2)cc1 ?
Response given: 67
